# System: Caco-2 cells
# assay_method_text: Stability during exposure to Caco-2 cells (LC-MS)
# experimental_parameters: up to 360 min, peptide mixtures
Peptide text beside a SMILES is read from it.
value_type: Stability, Caco-2

[[record]]
compound = "C[C@@H](O)[C@H](N)C(=O)N1CCC[C@H]1C(=O)N1CCC[C@H]1C(=O)O [TPP] (H-Thr-Pro-Pro-OH; N-terminus and C-terminus assumed)"
system_under_test = "Caco-2 cells"
value_type = "Stability, Caco-2"
recorded_value = "+"

[[record]]
compound = "CC[C@H](C)[C@H](N)C(=O)N1CCC[C@H]1C(=O)N1CCC[C@H]1C(=O)O"
system_under_test = "Caco-2 cells"
value_type = "Stability, Caco-2"
recorded_value = "−"

[[record]]
compound = "CC[C@H](C)[C@H](NC(=O)[C@@H]1CCCN1)C(=O)N1CCC[C@H]1C(=O)O [PIP] (H-Pro-Ile-Pro-OH; N-terminus and C-terminus assumed)"
system_under_test = "Caco-2 cells"
value_type = "Stability, Caco-2"
recorded_value = "−"

[[record]]
compound = "N[C@@H](Cc1ccccc1)C(=O)N[C@@H](Cc1ccc(O)cc1)C(=O)O [FY] (H-Phe-Tyr-OH; N-terminus and C-terminus assumed)"
system_under_test = "Caco-2 cells"
value_type = "Stability, Caco-2"
recorded_value = "+/−"

[[record]]
compound = "CC(C)C[C@H](NC(=O)[C@@H]1CCCN1)C(=O)N1CCC[C@H]1C(=O)O [PLP] (H-Pro-Leu-Pro-OH; N-terminus and C-terminus assumed)"
system_under_test = "Caco-2 cells"
value_type = "Stability, Caco-2"
recorded_value = "−"

[[record]]
compound = "CC(C)C[C@H](NC(=O)[C@@H](NC(=O)[C@@H](N)CCCCN)C(C)C)C(=O)N1CCC[C@H]1C(=O)N[C@H](C(=O)N1CCC[C@H]1C(=O)O)C(C)C [KVLPVP] (H-KVLPVP-OH; N-terminus and C-terminus assumed)"
system_under_test = "Caco-2 cells"
value_type = "Stability, Caco-2"
recorded_value = "−"

[[record]]
compound = "CSCC[C@H](N)C(=O)N1CCC[C@H]1C(=O)N1CCC[C@H]1C(=O)O [MPP] (H-Met-Pro-Pro-OH; N-terminus and C-terminus assumed)"
system_under_test = "Caco-2 cells"
value_type = "Stability, Caco-2"
recorded_value = "−"

[[record]]
compound = "CC(C)[C@H](N)C(=O)N[C@@H](C)C(=O)N1CCC[C@H]1C(=O)O [VAP] (H-Val-Ala-Pro-OH; N-terminus and C-terminus assumed)"
system_under_test = "Caco-2 cells"
value_type = "Stability, Caco-2"
recorded_value = "−"

[[record]]
compound = "CC(C)[C@H](N)C(=O)N[C@@H](Cc1ccccc1)C(=O)O [VF] (H-Val-Phe-OH; N-terminus and C-terminus assumed)"
system_under_test = "Caco-2 cells"
value_type = "Stability, Caco-2"
recorded_value = "+/−"


---

For reference, IC50 measured on ACE (Homo sapiens):
Peptide text beside a SMILES is read from it.
value_type: IC50 (µM)

[[record]]
compound = "CC(C)C[C@H](NC(=O)[C@@H]1CCCN1)C(=O)N1CCC[C@H]1C(=O)O [PLP] (H-Pro-Leu-Pro-OH; N-terminus and C-terminus assumed)"
value_type = "IC50"
comparison_operator = ">"
recorded_value = 50

[[record]]
compound = "CSCC[C@H](N)C(=O)N1CCC[C@H]1C(=O)N1CCC[C@H]1C(=O)O [MPP] (H-Met-Pro-Pro-OH; N-terminus and C-terminus assumed)"
value_type = "IC50"
comparison_operator = "="
recorded_value = 10

[[record]]
compound = "NCCCC[C@H](N)C(=O)N1CCC[C@H]1C(=O)N1CCC[C@H]1C(=O)O [KPP] (H-Lys-Pro-Pro-OH; N-terminus and C-terminus assumed)"
value_type = "IC50"
comparison_operator = ">"
recorded_value = 50

[[record]]
compound = "N[C@@H](Cc1ccccc1)C(=O)N[C@@H](Cc1ccc(O)cc1)C(=O)O [FY] (H-Phe-Tyr-OH; N-terminus and C-terminus assumed)"
value_type = "IC50"
comparison_operator = "="
recorded_value = 20

[[record]]
compound = "CC[C@H](C)[C@H](NC(=O)[C@@H]1CCCN1)C(=O)N1CCC[C@H]1C(=O)O [PIP] (H-Pro-Ile-Pro-OH; N-terminus and C-terminus assumed)"
value_type = "IC50"
comparison_operator = ">"
recorded_value = 50

[[record]]
compound = "C[C@@H](O)[C@H](N)C(=O)N1CCC[C@H]1C(=O)N1CCC[C@H]1C(=O)O [TPP] (H-Thr-Pro-Pro-OH; N-terminus and C-terminus assumed)"
value_type = "IC50"
comparison_operator = "="
recorded_value = 35

[[record]]
compound = "CC(C)[C@H](N)C(=O)N[C@@H](C)C(=O)N1CCC[C@H]1C(=O)O [VAP] (H-Val-Ala-Pro-OH; N-terminus and C-terminus assumed)"
value_type = "IC50"
comparison_operator = "="
recorded_value = 4

[[record]]
compound = "N[C@@H](CS)C(=O)N1CCC[C@H]1C(=O)N1CCC[C@H]1C(=O)O [CPP] (H-Cys-Pro-Pro-OH; N-terminus and C-terminus assumed)"
value_type = "IC50"
comparison_operator = "="
recorded_value = 5


---

# assay_method_text: Stability during exposure to human serum (LC-MS)
# experimental_parameters: 37° C., up to 360 min, peptide mixtures
Peptide text beside a SMILES is read from it.
value_type: Stability, Serum

[[record]]
molecule = "C[C@@H](O)[C@H](N)C(=O)N1CCC[C@H]1C(=O)N1CCC[C@H]1C(=O)O [TPP] (H-Thr-Pro-Pro-OH; N-terminus and C-terminus assumed)"
value_type = "Stability, Serum"
recorded_value = "+/−"

[[record]]
molecule = "CC(C)[C@H](N)C(=O)N[C@@H](Cc1ccccc1)C(=O)O [VF] (H-Val-Phe-OH; N-terminus and C-terminus assumed)"
value_type = "Stability, Serum"
recorded_value = "+/−"

[[record]]
molecule = "CC[C@H](C)[C@H](N)C(=O)N1CCC[C@H]1C(=O)N1CCC[C@H]1C(=O)O"
value_type = "Stability, Serum"
recorded_value = "+/−"


---

# System: HUVEC cells
# assay_method_text: Stability during exposure to HUVEC cells (LC-MS)
# experimental_parameters: up to 120 min, peptide mixtures
Peptide text beside a SMILES is read from it.
value_type: Stability, HUVEC

[[record]]
compound = "CSCC[C@H](N)C(=O)N1CCC[C@H]1C(=O)N1CCC[C@H]1C(=O)O [MPP] (H-Met-Pro-Pro-OH; N-terminus and C-terminus assumed)"
recorded_value = "+"

[[record]]
compound = "CC(C)[C@H](N)C(=O)N[C@@H](C)C(=O)N1CCC[C@H]1C(=O)O [VAP] (H-Val-Ala-Pro-OH; N-terminus and C-terminus assumed)"
recorded_value = "−"

[[record]]
compound = "CC[C@H](C)[C@H](N)C(=O)N1CCC[C@H]1C(=O)N1CCC[C@H]1C(=O)O"
recorded_value = "+"

[[record]]
compound = "CC(C)C[C@H](NC(=O)[C@@H]1CCCN1)C(=O)N1CCC[C@H]1C(=O)O [PLP] (H-Pro-Leu-Pro-OH; N-terminus and C-terminus assumed)"
recorded_value = "+/−"

[[record]]
compound = "C[C@@H](O)[C@H](N)C(=O)N1CCC[C@H]1C(=O)N1CCC[C@H]1C(=O)O [TPP] (H-Thr-Pro-Pro-OH; N-terminus and C-terminus assumed)"
recorded_value = "+"

[[record]]
compound = "N[C@@H](Cc1ccccc1)C(=O)N[C@@H](Cc1ccc(O)cc1)C(=O)O [FY] (H-Phe-Tyr-OH; N-terminus and C-terminus assumed)"
recorded_value = "−"

[[record]]
compound = "CC[C@H](C)[C@H](NC(=O)[C@@H]1CCCN1)C(=O)N1CCC[C@H]1C(=O)O [PIP] (H-Pro-Ile-Pro-OH; N-terminus and C-terminus assumed)"
recorded_value = "+/−"

[[record]]
compound = "CC(C)[C@H](N)C(=O)N[C@@H](Cc1ccccc1)C(=O)O [VF] (H-Val-Phe-OH; N-terminus and C-terminus assumed)"
recorded_value = "−"

[[record]]
compound = "CC(C)C[C@H](NC(=O)[C@@H](NC(=O)[C@@H](N)CCCCN)C(C)C)C(=O)N1CCC[C@H]1C(=O)N[C@H](C(=O)N1CCC[C@H]1C(=O)O)C(C)C [KVLPVP] (H-KVLPVP-OH; N-terminus and C-terminus assumed)"
recorded_value = "−"


---

# Test system: ACE
# assay_method_text: ACE-inhibition assay 2: modified Matsui assay
# Format: biochemical
# experimental_parameters: substrate Hip-His-Leu, pH 8.3, 37° C., 30 min
Peptide text beside a SMILES is read from it.
log10 of IC50 for assorted molecules
value_type: log10 of IC50 (log10 of the value in µM)

[[record]]
molecule = "N[C@@H](Cc1ccccc1)C(=O)N[C@@H](Cc1ccc(O)cc1)C(=O)O [FY] (H-Phe-Tyr-OH; N-terminus and C-terminus assumed)"
system_under_test = "ACE"
value_type = "log10 of IC50"
recorded_value = 1.00

[[record]]
molecule = "CSCC[C@H](N)C(=O)N1CCC[C@H]1C(=O)N1CCC[C@H]1C(=O)O [MPP] (H-Met-Pro-Pro-OH; N-terminus and C-terminus assumed)"
system_under_test = "ACE"
value_type = "log10 of IC50"
recorded_value = 0.85

[[record]]
molecule = "N[C@@H](CS)C(=O)N1CCC[C@H]1C(=O)N1CCC[C@H]1C(=O)O [CPP] (H-Cys-Pro-Pro-OH; N-terminus and C-terminus assumed)"
system_under_test = "ACE"
value_type = "log10 of IC50"
recorded_value = 0.60

[[record]]
molecule = "CC(C)[C@H](N)C(=O)N[C@@H](C)C(=O)N1CCC[C@H]1C(=O)O [VAP] (H-Val-Ala-Pro-OH; N-terminus and C-terminus assumed)"
system_under_test = "ACE"
value_type = "log10 of IC50"
recorded_value = 0.00

[[record]]
molecule = "C[C@@H](O)[C@H](N)C(=O)N1CCC[C@H]1C(=O)N1CCC[C@H]1C(=O)O [TPP] (H-Thr-Pro-Pro-OH; N-terminus and C-terminus assumed)"
system_under_test = "ACE"
value_type = "log10 of IC50"
recorded_value = 1.18

[[record]]
molecule = "CC(C)C[C@H](NC(=O)[C@@H](NC(=O)[C@@H](N)CCCCN)C(C)C)C(=O)N1CCC[C@H]1C(=O)N[C@H](C(=O)N1CCC[C@H]1C(=O)O)C(C)C [KVLPVP] (H-KVLPVP-OH; N-terminus and C-terminus assumed)"
system_under_test = "ACE"
value_type = "log10 of IC50"
recorded_value = 0.30


Data provenance is patent US20070141120A1.
